Type: in vivo, human
Conditions: human, plasma, other: IV or oral, 1500 mg, t1/2, range of means after single-dose IV or oral administration
MEASURED QUANTITY: half-life

Consider the compound shown here: "Cc1nc(NNC(=O)[C@H](CC2CCCC2)CN(O)C=O)c(F)c(N2CCN3CCOC[C@@H]3C2)n1" What is its recorded half-life?
8.7 to 10.3 h

---

Test: Solubility
Type: physicochemical
Conditions: pH 3.5
MEASURED QUANTITY: solubility (mg/mL)
Please reply with the bare figure in mg/mL and do not write the unit itself.

Consider the compound shown here: Cc1nc(NNC(=O)[C@H](CC2CCCC2)CN(O)C=O)c(F)c(N2CCN3CCOC[C@@H]3C2)n1 [GSK1322322] What is its recorded solubility?
40

---

Type: in vivo, human
Details: human, plasma, oral, 1500 mg, Tmax, median (range); 1500-mg free base tablet, fasted state
MEASURED QUANTITY: Tmax (min)
Please reply with the bare figure in min and do not write the unit itself.

Consider the molecule shown here: Cc1nc(NNC(=O)[C@H](CC2CCCC2)CN(O)C=O)c(F)c(N2CCN3CCOC[C@@H]3C2)n1 [GSK1322322] What is its recorded Tmax?
30

---

Assay type: in vivo, human
Conditions: human, plasma, po, 1500 mg, Cmax, mean (SD); 1500-mg oral MS solution, fasted state
MEASURED QUANTITY: Cmax (ng/mL)
Please reply with the bare figure in ng/mL and do not write the unit itself.

Consider the compound shown here: "Cc1nc(NNC(=O)[C@H](CC2CCCC2)CN(O)C=O)c(F)c(N2CCN3CCOC[C@@H]3C2)n1" What is its recorded Cmax?
25800

---

Format: in vivo, human
Settings: human, plasma, oral, 1500 mg, AUC0−∞, mean (SD); 1500-mg free base tablet, fasted state
MEASURED QUANTITY: AUC(0-inf) (ng·h/mL)
Please reply with the bare figure in ng·h/mL and do not write the unit itself.

Consider the molecule shown here: "Cc1nc(NNC(=O)[C@H](CC2CCCC2)CN(O)C=O)c(F)c(N2CCN3CCOC[C@@H]3C2)n1" What is its recorded AUC(0-inf)?
46100
